# Tested Target: SARS-CoV-2 3CLpro (Severe acute respiratory syndrome coronavirus 2)
# Procedure Summary: biochemical
# Assay type: biochemical
# Set-up: unit not given here
# Condition Description: sheet LOPAC_screen_w_protease; LOPAC1280 primary screen at 5 µM, with protease; mean of two replicates
Value Kind: mean
In your answer, state the number alone without any accompanying words.

Example results:
Compound | mean
Nc1ncnc2c1ncn2C1CCCO1 (centres unmarked) | -1.0181
CCCn1c(=O)c2[nH]c(-c3ccc(OCC(=O)NCCN)cc3)nc2n(CCC)c1=O | -1.654
O=C(O)CCC(=O)N1CCC[C@H]1C(=O)O | -1.024

Query: Write down mean measured for item NC(=O)COc1c(F)cc(SCCNS(=O)(=O)c2ccccc2)cc1F
Result: -1.413

Query: Retrieve mean measured for O=C(c1cc(O)c(O)c([N+](=O)[O-])c1)c1ccccc1F and print it.
Result: -0.9763
